assay: Drug uptake in cPP-induced feeding Sprague-Dawley rat model brain at 10 mg/kg, po after 1 hr; type: ADME, organism-based; set-up: dose 10 mg/kg, route oral; details: read-out: Drug uptake
measure: concentration at 1 h (ng/g)

INSERT INTO measurements (structure_string, recorded_number) VALUES
  ('CC(C)S(=O)(=O)NC[C@H]1CC[C@H](NC(=O)Cn2ccc3cc(Cl)ccc32)CC1', 132),
  ('CC(C)S(=O)(=O)NC[C@H]1CC[C@H](NC(=O)CN2CCc3cc(Cl)ccc32)CC1', 151);

---

test system: Plasma; assay: Plasma concentration in Sprague-Dawley rat at 10 mg/kg, po by LC-MS/MS analysis; assay type: ADME, organism-based; set-up: dose 10 mg/kg, route oral; conditions: in vivo
measure: concentration (nM)

Examples with their reported concentration follow.
INSERT INTO results (structure_string, recorded_number) VALUES
  ('CC(C)S(=O)(=O)NC[C@H]1CC[C@H](NC(=O)CN2CCc3cc(F)ccc32)CC1', 2680),
  ('CC(C)S(=O)(=O)NC[C@H]1CC[C@H](NC(=O)Cn2ccc3cc(C#N)ccc32)CC1', 769),
  ('CC(C)S(=O)(=O)NC[C@H]1CC[C@H](NC(=O)CCN2CCc3ccccc32)CC1', 24),
  ('CC(C)S(=O)(=O)NC[C@H]1CC[C@H](NC(=O)Cn2ccc3cc(F)ccc32)CC1', 1300);

[P] CC(C)S(=O)(=O)NC[C@H]1CC[C@H](NC(=O)Cc2cn(C)c3ccccc23)CC1
[Q] CC(C)S(=O)(=O)NC[C@H]1CC[C@H](NC(=O)Cn2ccc3ccccc32)CC1
# input Dear colleague, could you let me know whether P or Q has the lower recorded concentration? Thanks. Answer with the label corresponding to your selection.
# output P
(P: 296 nM, Q: 460 nM)

[A] CC(C)S(=O)(=O)NC[C@H]1CC[C@H](NC(=O)Cc2c[nH]c3ccccc23)CC1
[B] CC(C)S(=O)(=O)NC[C@H]1CC[C@H](NC(=O)Cn2ccc3ccc(Cl)cc32)CC1
[C] Cc1cc2ccccc2n1CC(=O)N[C@H]1CC[C@H](CNS(=O)(=O)C(C)C)CC1
# input Let's sort these by concentration, smallest first. Go ahead? Lab note: record answer as labels in requested order.
# output B, C, A
(B: 157 nM, C: 242 nM, A: 2560 nM)

---

test system: Brain; assay: Drug uptake in Sprague-Dawley rat brain at 10 mg/kg, po by LC-MS/MS analysis; type: ADME, organism-based; parameters: dose 10 mg/kg, route oral; conditions: in vivo, read-out: Drug uptake
measure: concentration (nM)

INSERT INTO measurements (structure_string, unit_info, recorded_number) VALUES
  ('CC(C)S(=O)(=O)NC[C@H]1CC[C@H](NC(=O)Cn2ccc3ccccc32)CC1', 'nM', 81);

[A] CC(C)S(=O)(=O)NC[C@H]1CC[C@H](NC(=O)CN2CCc3cc(Cl)ccc32)CC1
[B] CC(C)S(=O)(=O)NC[C@H]1CC[C@H](NC(=O)Cn2ccc3cc(F)ccc32)CC1
[C] CC(C)S(=O)(=O)NC[C@H]1CC[C@H](NC(=O)Cn2ccc3cc(Cl)ccc32)CC1
[D] CC(C)S(=O)(=O)NC[C@H]1CC[C@H](NC(=O)Cn2c(=O)oc3ccccc32)CC1
# input Let's sort these by concentration, smallest first. Go ahead? Lab note: record answer as labels in requested order.
# output D, C, B, A
